MEASURED TARGET: T1, purified human CD117 ectodomain (R&D Systems #332-SR) (human, UniProt P10721 26-524)
T1 construct: extracellular domain; Bought protein; also called c-kit; purified recombinant human CD117 ectodomain
T1 sequence (P10721 26-524): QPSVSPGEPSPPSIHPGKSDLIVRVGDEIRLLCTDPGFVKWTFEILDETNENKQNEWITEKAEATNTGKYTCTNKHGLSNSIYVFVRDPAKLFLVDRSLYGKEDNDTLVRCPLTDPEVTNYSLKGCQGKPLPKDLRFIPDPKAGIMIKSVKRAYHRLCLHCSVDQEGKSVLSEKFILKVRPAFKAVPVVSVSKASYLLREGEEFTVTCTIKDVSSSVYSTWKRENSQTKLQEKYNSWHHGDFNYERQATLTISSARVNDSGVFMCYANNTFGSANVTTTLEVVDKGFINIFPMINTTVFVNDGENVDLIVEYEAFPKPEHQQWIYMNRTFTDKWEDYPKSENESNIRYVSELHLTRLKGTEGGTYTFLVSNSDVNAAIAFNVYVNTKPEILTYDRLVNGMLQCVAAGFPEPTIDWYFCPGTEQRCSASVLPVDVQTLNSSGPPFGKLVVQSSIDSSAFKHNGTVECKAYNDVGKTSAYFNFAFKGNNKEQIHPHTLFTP
METHOD SUMMARY: BLI, purified IgG on sensor, soluble ectodomain; apparent monovalent
Consider the following binders; for each one, report its Kd.
Use nM as the unit, but write only the number.

Value of measured Kd for the entry HC-22/LC-22 (Ab22) (antibody, IgG1, V domains shown, From rat immunization/hybridoma; purified IgG in BLI; also called 022) VH: QVQLKESGPGLVQPSQTLSLTCTVSGFSLTSYLVHWVRQPPGKTLEWVGLMWNDGDTSYNSALKSRLSISRDTSKSQVFLKMHSLQAEDTATYYCARESNLGFTYWGHGTLVTVSS VL: DIQMTQSPASLSASLEEIVTITCKASQGIDDDLSWYQQKPGKSPQLLIYDVTRLADGVPSRFSGSRSGTQYSLKISRPQVADSGIYYCLQSYSTPYTFGAGTKLELK : 0.0964

The binder identified as HC-17/LC-17 (Ab17) (antibody, IgG1, V domains shown, From rat immunization/hybridoma; purified IgG in BLI; also called 017) VH: QIQLVQSGPELRKPGESVKISCKASGYTFTDYAMYWVKQAPGKGLKWMGWINTYTGKPTYADDFKGRFVFSLEASANTANLQISNLKNEDTATYFCARARGLVDDYVMDAWGQGTSVTVSS VL: SYELIQPPSASVTLGNTVSLTCVGDELSKRYAQWYQQKPDKTIVSVIYKDSERPSGISDRFSGSSSGTTATLTIHGTLAEDEADYYCLSTYSDDNLPVFGGGTKLTVL registered its Kd at 0.672
